Ref: patent EP1614683B1

Reported values of T1/2 for individual entries
Details: PO, 25 mg/kg, vehicle PEG400:H2O pH 2.3 30:70
readout_kind: T1/2 (h)

| compound | readout_kind | quantitative_result |
| --- | --- | --- |
| O=C(NNc1ccccn1)c1ccccc1Sc1ccc2c(/C=C/c3ccccn3)n[nH]c2c1 | T1/2 | 1.4 |
| Cc1cc(C(=O)Nc2cccc(C(=O)c3ccc4c(/C=C/c5ccccn5)n[nH]c4c3)c2)cc(Cl)n1 | T1/2 | 5.2 |
| CCn1nc(C)cc1C(=O)Nc1cccc(Oc2ccc3c(/C=C/c4c[nH]c(C)n4)n[nH]c3c2)c1 [Reference Example 32(c)] | T1/2 | 2.4 |
| CC(=O)Nc1cc(C(=O)c2ccc3c(/C=C/c4ccccn4)n[nH]c3c2)ccc1C | T1/2 | 1.1 |
| Cc1cc(C(=O)Nc2cccc(C(=O)c3ccc4c(/C=C/c5ccccn5)n[nH]c4c3)c2)n(C(C)C)n1 | T1/2 | 4.2 |

###

Molecular target: human FGF-R1 (Homo sapiens, UniProt P11362, C488A/C584S/L457V)
Sequence (P11362 456-766 L457V/C488A/C584S): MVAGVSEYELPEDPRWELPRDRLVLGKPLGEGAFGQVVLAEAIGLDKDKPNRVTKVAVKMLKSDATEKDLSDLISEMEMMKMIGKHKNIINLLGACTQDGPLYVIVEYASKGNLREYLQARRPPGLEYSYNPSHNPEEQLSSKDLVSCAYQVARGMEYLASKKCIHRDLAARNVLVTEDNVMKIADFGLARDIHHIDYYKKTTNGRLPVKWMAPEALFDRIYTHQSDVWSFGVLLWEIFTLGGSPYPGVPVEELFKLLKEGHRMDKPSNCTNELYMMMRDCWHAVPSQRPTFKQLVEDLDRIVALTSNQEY
Test: FGF-R spectrophotometric assay
Type: biochemical
Settings: Table 1; compound concentration 1 µM; read-out: FGF-P* (% inhibition)
readout_kind: inhibition at 1 µM (%)

| compound | quantitative_result |
| --- | --- |
| O=C(c1cccc(NC(=O)C2CC2)c1)c1ccc2c(/C=C/c3ccccn3)n[nH]c2c1 [Reference Example 41(k)] | 49 |
| CC(=O)Nc1cccc(C(=O)c2ccc3c(/C=C/c4ccccc4)n[nH]c3c2)c1 | 92 |
| O=C(Nc1cccc(C(=O)c2ccc3c(/C=C/c4ccccc4)n[nH]c3c2)c1)c1ccccc1 | 60 |
| C=C(c1cccc(NC(C)=O)c1)c1ccc2c(/C=C/c3ccccc3)n[nH]c2c1 | 14 |

###

Experiment: in vivo
Details: mouse, plasma, po, 50 mg/kg, pH 2.3
Kindly return Satisfied if reported AUC is no lower than 5000 ng·h/mL; return Not satisfied if it is lower.

| molecule | discrete_label |
| --- | --- |
| Cn1nc(C(C)(C)C)cc1C(=O)Nc1cccc(C(=O)c2ccc3c(/C=C/c4ccccn4)n[nH]c3c2)c1 [41 (n)] | Satisfied |
| O=C(c1cccc(NC(=O)c2ccccn2)c1)c1ccc2c(/C=C/c3ccccc3)n[nH]c2c1 [19(k)] | Not satisfied |
| CNC(=O)c1ccccc1Sc1ccc2c(/C=C/c3ccccn3)n[nH]c2c1 [Reference Example 33(a)] | Satisfied |
| CC(=O)c1ccc(C(=O)Nc2cccc(C(=O)c3ccc4c(/C=C/c5ccccn5)n[nH]c4c3)c2)s1 [41 (e)] | Not satisfied |
| O=C(Nc1cccc(Oc2ccc3c(/C=C/c4ccccn4)n[nH]c3c2)c1)c1ccccc1 [Reference Example 31(a)] | Satisfied |
| O=C(Nc1cccc(C(=O)c2ccc3c(/C=C/c4ccccc4)n[nH]c3c2)c1)c1ccncc1 [19(j)] | Satisfied |
| CCn1nc(C)cc1C(=O)Nc1cccc(C(=O)c2ccc3c(/C=C/c4ccccn4)n[nH]c3c2)c1 [41 (a)] | Satisfied |
| CCn1nc(C)cc1C(=O)Nc1cccc(Oc2ccc3c(/C=C/c4ccccn4)n[nH]c3c2)c1 [Reference Example 31(d)] | Satisfied |
| O=C(c1cccc(NC(=O)c2ccc(Cl)s2)c1)c1ccc2c(/C=C/c3ccccn3)n[nH]c2c1 [41 (o)] | Satisfied |
| Cc1cc(C(=O)Nc2cccc(Oc3ccc4c(/C=C/c5ccccn5)n[nH]c4c3)c2)nn1C [Reference Example 31(b)] | Not satisfied |
| O=C(Nc1ccccc1)c1ccccc1Sc1ccc2c(/C=C/c3ccccn3)n[nH]c2c1 [Reference Example 33(c)] | Not satisfied |
| Cc1ccc2cc(NC(=O)c3ccccc3Sc3ccc4c(/C=C/c5ccccn5)n[nH]c4c3)ccc2n1 [Reference Example 33(b)] | Not satisfied |
| CC1CC1C(=O)Nc1cccc(C(=O)c2ccc3c(/C=C/c4ccccn4)n[nH]c3c2)c1 (stereo not drawn) [41 (h)] | Not satisfied |
| COc1cccc(C(=O)Nc2cccc(C(=O)c3ccc4c(/C=C/c5ccccn5)n[nH]c4c3)c2)c1 [41 (bb)] | Not satisfied |
| O=C(Nc1cccc(Oc2ccc3c(/C=C/c4c[nH]cn4)n[nH]c3c2)c1)c1ccccc1 [Reference Example 32(a)] | Not satisfied |
